Test system: Human papillomavirus type 1a E7 protein (residues 1-88)
Procedure summary: HPV1a E7 small-molecule binders, primary screen, biochemical, small-molecule microarray, residues 1-88, 635 nm (AID 1129)
Condition: small-molecule microarray binding, fluorescence 635 nm; higher = more signal
Use composite z-score to assign classes; range list: lower = under 0.2, middle = from 0.2 up to 1, upper = 1 and over

Sample answers from the record:
| Compound | Group label |
| --- | --- |
| Cc1nc2cc(Br)ccc2c(=O)n1Cc1cccc(O)c1 | middle |
| O=C1O[C@H](c2ccccc2)[C@H](c2ccccc2)N2[C@H]1[C@@H](C(=O)Nc1nc3ccccc3s1)[C@]1(C(=O)Nc3ccc(C#CC4=CCCCC4)cc31)[C@H]2c1ccc(O)cc1 | upper |
| COC(=O)C1N=C(c2ccc(OCCCO)cc2)N(c2ccccc2)O1 (stereo not drawn) | upper |
| C=CCC(OC(C)=O)[C@@H]1[C@@H](N(Cc2ccc(-c3cccc(C(F)(F)F)c3)o2)C(=O)c2cccc3ccccc23)c2cc(OCCCO)ccc2N1C(=O)Cc1ccc(OC)cc1 (stereo partly drawn) | lower |

Ask | Which band does "CC(C)C(=C=CC[C@H](O)c1cccc(OCCO)c1)CCO" fall in?
Reply | lower

Ask | Which band does C=CCC(OC(C)=O)[C@@H]1[C@@H](N(Cc2cccc3ccccc23)C(=O)c2cccc3ccccc23)c2cc(OCCCO)ccc2N1C(=O)c1ccc2ccccc2c1 (stereo partly drawn) fall in?
Reply | lower

Ask | Which band does CCN(CC)c1ccc(N2CC=CC34O[C@@H]5C=CCCOC(=O)C5[C@H]3C(=O)N(CCO)[C@@H]4C2=O)cc1 (stereo partly drawn) fall in?
Reply | lower

Ask | Which band does "COCCOC(=O)N1C(=O)[C@@]2(c3cc(C#CCNC(N)=O)ccc31)[C@H](c1ccc(O)cc1)N1[C@H](c3ccccc3)[C@H](c3ccccc3)OC(=O)[C@H]1[C@@H]2C(N)=O" fall in?
Reply | lower

Ask | Which band does "COCCOC(=O)N1C(=O)[C@@]2(c3cc(C#CCCO)ccc31)[C@H](C(=O)N1CCCCCCC1)[C@H]1C(=O)O[C@H](c3ccccc3)[C@H](c3ccccc3)N1[C@@H]2c1ccccc1OCCO" fall in?
Reply | upper

Ask | Which band does "COCCOC(=O)N1C(=O)[C@@]2(c3cc(C#CC4=CCCCC4)ccc31)[C@H](c1ccc(O)cc1)N1[C@H](c3ccccc3)[C@H](c3ccccc3)OC(=O)[C@H]1[C@@H]2C(=O)NC[C@H](O)c1ccccc1" fall in?
Reply | upper

Ask | Which band does CCC(CC)C(O)C1C=CC2C(=O)N(c3ccccc3)C(=O)C2N1Nc1ccc([N+](=O)[O-])cc1 (stereo not drawn) fall in?
Reply | upper

Ask | Which band does COCC1C2CC[C@H]3C(OCc4ccc(OC)cc4)OC[C@]4(C)[C@H]3C2=C(CN4C(=O)OC(C)(C)C)[C@H](C)C1COC (stereo partly drawn) fall in?
Reply | upper

Ask | Which band does "CN(C)CCCC[C@@H]1NC(=O)[C@@H]2C[C@H](C(=O)O)[C@H](c3cccc(OCCO)c3)N2C1=O" fall in?
Reply | lower

Ask | Which band does "CCOC(=O)C[C@H]1[C@H](OC(=O)c2ccccc2-c2ccccc2)[C@@H](NC(=O)c2ccccc2)c2cc(OCCCO)ccc2N1C(=O)c1ccccc1" fall in?
Reply | middle

Ask | Which band does "NC(=O)NCC#Cc1ccc2c(c1)[C@]1(C(=O)N2)[C@H](C(=O)N2CCN(c3ncccn3)CC2)[C@H]2C(=O)O[C@H](c3ccccc3)[C@H](c3ccccc3)N2[C@@H]1c1ccc(OCCO)cc1" fall in?
Reply | middle

Ask | Which band does CS(=O)(=O)CCOC(=O)C1=CC(CCCO)=CC(C2CC2)N(Cc2cccc(OC(F)(F)F)c2)C=C1C(=O)OCCS(C)(=O)=O (stereo not drawn) fall in?
Reply | middle

Ask | Which band does CN1C(=O)C2C=CC(C(O)c3ccc(I)cc3)N(Nc3ccccc3)C2C1=O (stereo not drawn) fall in?
Reply | upper
